System: Aphis fabae
Experiment: Insecticidal activity against Aphis fabae (black bean aphid) infested soybean tender shoots at 2.5 mg/L measured 48 hr post compound dose by modified FAO dip method
Assay type: functional
Known mortality at 2.5 µg/mL of a selection of molecules

Some molecules with known mortality at 2.5 µg/mL results, for comparison:
CCC(C)[C@H]1O[C@]2(CC[C@@H]1C)C[C@@H]1C[C@@H](C/C=C(\C)[C@@H](O[C@H]3C[C@H](OC)[C@@H](OC(=O)c4ccccc4)[C@H](C)O3)[C@@H](C)/C=C/C=C3\CO[C@@H]4[C@H](O)C(C)=C[C@@H](C(=O)O1)[C@]34O)O2 (some centres undefined)
100%
CCC(C)[C@H]1O[C@]2(CC[C@@H]1C)C[C@@H]1C[C@@H](C/C=C(\C)[C@@H](OC(=O)c3cc(F)c(Cl)nc3Cl)[C@@H](C)/C=C/C=C3\CO[C@@H]4[C@H](O)C(C)=C[C@@H](C(=O)O1)[C@]34O)O2 (some centres undefined)
38.2%
CCC(C)[C@H]1O[C@]2(CC[C@@H]1C)C[C@@H]1C[C@@H](C/C=C(\C)[C@@H](O[C@H]3C[C@H](OC)[C@@H](OC(=O)c4ccc(F)cc4)[C@H](C)O3)[C@@H](C)/C=C/C=C3\CO[C@@H]4[C@H](O)C(C)=C[C@@H](C(=O)O1)[C@]34O)O2 (some centres undefined)
100%

Consider the record given below.
What reported mortality at 2.5 µg/mL corresponds to CCC(C)[C@H]1O[C@]2(CC[C@@H]1C)C[C@@H]1C[C@@H](C/C=C(\C)[C@@H](O[C@H]3C[C@H](OC)[C@@H](OC(=O)C(C)(C)CC)[C@H](C)O3)[C@@H](C)/C=C/C=C3\CO[C@@H]4[C@H](O)C(C)=C[C@@H](C(=O)O1)[C@]34O)O2 (some centres undefined) on Aphis fabae? 100%

###

Tested on: Mythimna separata
Test: Insecticidal activity against Mythimna separata (Oriental armyworm) fourth-instar larvae reared compound pre-treated corn leaves assessed as insect mortality at 200 mg/L measured 2 days post compound dose
Assay type: functional
Known mortality at 200 µg/mL of a selection of compounds
Please state the figure in %; there is no need to write the unit.

Some compounds with known mortality at 200 µg/mL results, for comparison:
CCC(C)[C@H]1O[C@]2(CC[C@@H]1C)C[C@@H]1C[C@@H](C/C=C(\C)[C@@H](OC(=O)c3ccc(C)cc3)[C@@H](C)/C=C/C=C3\CO[C@@H]4[C@H](O)C(C)=C[C@@H](C(=O)O1)[C@]34O)O2 (some centres undefined)
87.6
C/C=C/C(=O)O[C@H]1[C@H](C)O[C@@H](O[C@@H]2/C(C)=C/C[C@@H]3C[C@@H](C[C@]4(CC[C@H](C)[C@@H](C(C)CC)O4)O3)OC(=O)[C@@H]3C=C(C)[C@@H](O)[C@H]4OC/C(=C\C=C\[C@@H]2C)[C@]43O)C[C@@H]1OC (some centres undefined)
88.9
CCC(C)[C@H]1O[C@]2(CC[C@@H]1C)C[C@@H]1C[C@@H](C/C=C(\C)[C@@H](OC(=O)c3ccccc3)[C@@H](C)/C=C/C=C3\CO[C@@H]4[C@H](O)C(C)=C[C@@H](C(=O)O1)[C@]34O)O2 (some centres undefined)
88.6

Consider the record given below.
May I ask what mortality at 200 µg/mL has been recorded for CCC(C)[C@H]1O[C@]2(CC[C@@H]1C)C[C@@H]1C[C@@H](C/C=C(\C)[C@@H](O[C@H]3C[C@H](OC)[C@@H](OC(=O)c4ccc(C)cc4)[C@H](C)O3)[C@@H](C)/C=C/C=C3\CO[C@@H]4[C@H](O)C(C)=C[C@@H](C(=O)O1)[C@]34O)O2 (some centres undefined) ? 89.7
